molecular target: Torsin-1A (Homo sapiens); experiment: torsin A binders from cell lysate, primary screen, small-molecule microarray, wild-type, 635/667 nm (AID 1149); details: COS7 hTOR1A-WT lysate, 635 nm fluorescence, higher = more signal
Decision: composite z-score >= 0.1 yields YES, all other cases yield NO.

compound	class.assignment
C=CCNC(=O)[C@@H]1[C@H]2C(=O)O[C@H](c3ccccc3)[C@H](c3ccccc3)N2[C@H](c2ccc(O)cc2)[C@@]12C(=O)N(C(=O)OCCOC)c1ccc(C#CCC(C(=O)OC)C(=O)OC)cc12	YES
OCCCc1cc[n+](Cc2cc3c(cc2Br)OCO3)cc1	NO
COC(=O)[C@@]1(Cc2ccccc2)[C@H]2c3cc(C(=O)N(C)C)n(Cc4ccc(Cl)c(C(F)(F)F)c4)c3C[C@H]2CN1C(=O)c1ccccc1	NO
CC(C)(C)OC(=O)CC[C@@]1(C(N)=O)N=C(c2ccc(OCCCO)cc2)O[C@@H]1c1ccccc1CN=[N+]=[N-]	YES
[N-]=[N+]=NCc1ccccc1[C@H]1OC(c2ccc(OCCCO)cc2)=N[C@@]1(Cc1ccccc1N=[N+]=[N-])C(=O)N1CCOCC1	YES
C=CCNC(=O)[C@@H]1[C@H]2C(=O)O[C@H](c3ccccc3)[C@H](c3ccccc3)N2[C@H](c2ccc(O)cc2)[C@@]12C(=O)Nc1ccc(C#CC3=CCCCC3)cc12	YES
C[C@]1(C(=O)O)c2ccccc2C(=O)N(Cc2cc(C(F)(F)F)cc(C(F)(F)F)c2)[C@H]1c1ccc(CO)cc1	NO
C=CCNC(=O)[C@H]1[C@@H]2C(=O)O[C@@H](c3ccccc3)[C@@H](c3ccccc3)N2[C@@H](c2ccc(OCCO)cc2)[C@]12C(=O)Nc1ccc(C#Cc3ccc(OC)cc3)cc12	YES
CCOC(=O)C1=C[C@@H](C(C)(C)C)N(S(=O)(=O)c2ccc(C)cc2)[C@H]1c1ccc(OC)cc1	YES
C=CCNC(=O)[C@H]1[C@@H]2C(=O)O[C@@H](c3ccccc3)[C@@H](c3ccccc3)N2[C@@H](c2ccc(O)cc2)[C@]12C(=O)Nc1ccccc12	YES
CCCNC(=O)[C@@]1(Sc2ccc(C)cc2)CC(=O)N(Cc2cc(C(F)(F)F)cc(C(F)(F)F)c2)[C@@H]1c1ccc(CO)cc1	NO
COc1ccc(CCNC(=O)[C@@H]2c3ccccc3C(=O)N(C(C)C)[C@H]2c2ccc(CO)cc2)cc1	YES
CN1C(=O)C2C(C1=O)C1C=C(CCCO)C2C(C2CC2)N1C (centres undefined)	NO
COc1ccc(C#Cc2ccc3c(c2)[C@]2(C(=O)N3)[C@H](c3ccccc3OCCO)N3[C@H](c4ccccc4)[C@H](c4ccccc4)OC(=O)[C@H]3[C@@H]2C(=O)NC[C@H](O)c2ccccc2)cc1	YES

----------
biological target: Follistatin-related protein 3 (Homo sapiens); assay: FSTL3 binders on small-molecule microarrays, primary screen, biochemical, small-molecule microarray, 635 nm fluorescence (AID 1105); settings: FSTL3 binding, higher = more signal;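 note: score merges emission near 667 nm and signal to noise per printed spot across three slides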
Give label 1 when the value for composite z-score is at least 0.3. Give label 0 when it is less.

compound	class.assignment
C=CC[C@]12N=C(c3ccc(OCCCO)cc3)O[C@H]1c1ccccc1N(CCC)C2=O	label 1
C=C[C@H](C)[C@@H](OC(=O)Nc1ccc(SC)cc1)c1ccc(OCCO)cc1	label 1
Cc1cccc([C@H]2C[C@H]3C(Br)=C[C@@]2(CO)C(=O)[C@]32CO2)c1	label 0
COCCOC(=O)N1C(=O)[C@@]2(c3cc(C#CC4=CCCCC4)ccc31)[C@H](C(=O)N1CCCCCCC1)[C@H]1C(=O)O[C@H](c3ccccc3)[C@H](c3ccccc3)N1[C@@H]2c1ccccc1OCCO	label 1
COCCOC(=O)N1C(=O)[C@@]2(c3cc(C#CCNC(N)=O)ccc31)[C@H](c1ccccc1OCCO)N1[C@H](c3ccccc3)[C@H](c3ccccc3)OC(=O)[C@H]1[C@@H]2C(=O)N1CCCCCCC1	label 1
C=C(C(=O)CC[C@@H](OC(=O)c1cccnc1)c1cccc(OCCO)c1)C(C)C	label 1
COCCCNC(=O)[C@]1(Cc2ccccc2CN=[N+]=[N-])N=C(c2ccc(OCCCO)cc2)O[C@@H]1c1ccccc1N=[N+]=[N-]	label 0
C=CCC(OC(C)=O)[C@@H]1[C@@H](N(Cc2cccc3ccccc23)C(=O)c2ccc(C)cc2)c2cc(OCCCO)ccc2N1C(=O)Cc1ccc2ccccc2c1 (stereo partly drawn)	label 0
O=C1C2C=CC(C(O)c3ccccn3)N(Nc3ccc([N+](=O)[O-])cc3)C2C(=O)N1c1ccccc1 (stereo not drawn)	label 1
CO[C@H]1O[C@H](CO)[C@@H](OC(=O)Nc2ccccc2)[C@@H]2OC(=O)[C@@H](Cc3ccccc3)C/C=C/C[C@H](Cc3ccccc3)C(=O)O[C@@H]12	label 0
CC[C@H]1C2=C3C(CC[C@H]4C(OCc5ccc(F)cc5C(F)(F)F)OC[C@](C)([C@@H]34)N(C(=O)OC(C)(C)C)C2)C(COC(C)=O)C1COC(C)=O (stereo partly drawn)	label 1
COCCOC(=O)N1C(=O)[C@@]2(c3cc(C#CCC(C(=O)OC)C(=O)OC)ccc31)[C@H](C(=O)N1CCc3cc(OC)c(OC)cc3C1)[C@H]1C(=O)O[C@H](c3ccccc3)[C@H](c3ccccc3)N1[C@@H]2c1ccccc1OCCO	label 1
O=C1O[C@H](c2ccccc2)[C@H](c2ccccc2)N2[C@H]1[C@@H](C(=O)O)[C@]1(C(=O)Nc3ccccc31)[C@H]2c1ccc(OCCO)cc1	label 0
